Attribution: PubChem BioAssay (NCI)

System: XF 498 CNS
Experiment: NCI tumour cell line growth inhibition, 48 h
Answer each item with its documented TGI.

For reference, reported TGI for "C[C@@H]1O[C@]2(O)[C@@H]3CCCN3S(=O)(=O)CCN2C1=O" stands at > 100 µM

For reference, reported TGI for "O=C(N/C(=C\c1ccccc1Cl)c1nc2ccccc2[nH]1)c1ccccc1" stands at 57.5 µM

For reference, reported TGI for "CN(C)C(=O)NC(=S)N(C)C" stands at > 100 µM

For reference, reported TGI for CCOC(=O)C(NO)C(Sc1ccccc1)c1ccc(OC)cc1 (stereo not given) stands at > 100 µM

For reference, reported TGI for COC(=O)C1C(=O)O[C@@H](c2ccc(OC)c(OC)c2OC)C1C(=O)OC (mixture of isomers) stands at > 100 µM
